# System: MOLT-4 leukemia
# Test Details: NCI tumour cell line growth inhibition, 48 h
Measurement Label: TGI (µM)
Numeric answer only, unit µM assumed.

Example entries begin here.
>  <Molecule>
COc1ccc(/C=C/C(=O)c2ccc(OC)c(OC)c2)cc1O

>  <TGI / µM>
26.1

$$$$
>  <Molecule>
CCOC(=O)C(C(=S)SC)c1nn2c(=O)cc(C)nc2s1 (stereo unspecified)

>  <TGI / µM>
44.2

$$$$

// query TGI value for entry `Cc1c2ccncc2c(C)c2c1[nH]c1ccc(OCC(F)(F)F)cc12`
3.26

---

# Test system: DU-145 prostate
# Test Details: NCI tumour cell line growth inhibition, 48 h
Measurement Label: GI50

Example entries begin here.
>  <Compound>
CC(=O)Oc1ccc(/C(=C(\C)c2ccc(Cl)cc2)c2ccc(OCCN3CCCCC3)cc2)cc1

>  <Val>
1920 nM

$$$$
>  <Compound>
O=C(Nc1n[nH]c2nnc(-c3cccnc3)cc12)C1CC1

>  <Val>
> 13400 nM

$$$$
>  <Compound>
CC(=O)OC1CC2C3CCC4C[C@@H](NC(=O)C=C(C)C)CC[C@]4(C)C3CC[C@]2(C)[C@H]1C(C)N(C)C (stereo partly drawn)

>  <Val>
3410 nM

$$$$
>  <Compound>
CN(C)c1ccc(/C=C/C2=[N+](C)c3ccccc3C2(C)C)cc1

>  <Val>
453 nM

$$$$
>  <Compound>
CCCCCCCCC(=O)OCC(CS[As](C)C)OC(=O)CCCCCCCC (stereo not drawn)

>  <Val>
747 nM

$$$$

// query GI50 value for entry `COc1cc2c(cc1Nc1nc(Nc3cccc(F)c3C(N)=O)c3cc[nH]c3n1)N(C(=O)CN1CCN(C(C)C)CC1)CC2`
3770 nM

// query GI50 value for entry `COc1cc([C@@H]2C[C@H]2c2cc(SC)n[nH]2)cc(OC)c1OC`
17700 nM

// query GI50 value for entry `OCc1ccc(N2CCc3ccccc3C2)cc1Cl`
2380 nM

// query GI50 value for entry `c1ccc2cc(C[n+]3ccn(CCCCCCCCCCn4cc[n+](Cc5ccc6ccccc6c5)c4)c3)ccc2c1`
1060 nM

// query GI50 value for entry `Cc1cc(N(CCCl)CCCl)ccc1C=Nc1ccc2ccccc2c1`
7710 nM

// query GI50 value for entry `COc1ccc(/C=C/C(=O)c2ccc(OC)c(OC)c2)cc1O`
2340 nM

// query GI50 value for entry `COc1ccc(-n2ccnc2-c2cc(OC)c(OC)c(OC)c2)cc1`
6660 nM

// query GI50 value for entry CCCCCCCCCCCCCCCCC(=O)O.CCCCCCCCCCCCCCCCCC(=O)O.CCCCCCCCCCCCCCCCCC(=O)O.CCCCCCCCCCCCCCCCCC(=O)O.CCCCCCCCCCCCCCCCCC(=O)O.CO[CH-]OC12COC1CC(O)C1(C)C(O)C(OC(C)O)C3=C(C)C(OC(=O)C(O)C([NH-])c4ccccc4)CC(O)(C(OC(=O)c4ccccc4)C21)C3(C)C.[Cu+].[Zn].[Zn].[Zn].[Zn].[Zn] (stereo not drawn)
8.71 nM
